The entries below come with measured MIC values attached.
tested on: Streptococcus pneumoniae; assay: In vitro inhibitory activity against Streptococcus pneumoniae (EryRi 030SJ5i); assay type: functional

COMPOUND: CC[C@H]1OC(=O)[C@H](C)C(=O)[C@H](C)[C@@H](O[C@@H]2O[C@H](C)C[C@H](N(C)C)[C@H]2O)[C@](C)(OC)C[C@@H](C)/C(=N\OCCNCc2ccccc2)[C@H](C)[C@@H](O)[C@]1(C)O
TESTED ON: Streptococcus pneumoniae
MIC: 40 µg/mL
--
COMPOUND: CC[C@H]1OC(=O)[C@H](C)C(=O)[C@H](C)[C@@H](O[C@@H]2O[C@H](C)C[C@H](N(C)C)[C@H]2O)[C@](C)(OC)C[C@@H](C)C(=O)[C@H](C)[C@H]2N(NCCCc3ccccc3)C(=O)O[C@]12C
TESTED ON: Streptococcus pneumoniae
MIC: 0.15 µg/mL
--
COMPOUND: CC[C@H]1OC(=O)[C@H](C)C(=O)[C@H](C)[C@@H](O[C@@H]2O[C@H](C)C[C@H](N(C)C)[C@H]2O)[C@](C)(OC)C[C@@H](C)C(=O)[C@H](C)[C@H]2N(CCCNc3ccccc3)C(=O)O[C@]12C
TESTED ON: Streptococcus pneumoniae
MIC: 0.6 µg/mL
--
COMPOUND: CC[C@H]1OC(=O)[C@H](C)C(=O)[C@H](C)[C@@H](O[C@@H]2O[C@H](C)C[C@H](N(C)C)[C@H]2O)[C@](C)(OC)C[C@@H](C)/C(=N\OC2CCNC2)[C@H](C)[C@@H](O)[C@]1(C)O (some centres undefined)
TESTED ON: Streptococcus pneumoniae
MIC: 40 µg/mL

Hey, just so you know, these numbers are from ChEMBL document CHEMBL1131139.
